assay: In vivo biodistribution in normal Balb/c mice; set-up: species or system mouse; conditions: female, mouse, lungs, iv, total radioactivity; normal Balb/c mice, 2 h p.i., i.v. tail vein, mean ± SD, n = 4-6; read-out: Lungs uptake
Where a SMILES comes first, the peptide text is derived from it. [ ]: non-standard residue; d: D form. The star is where a group is joined. DOTA = O=C(O)CN1CCN(CC(=O)O)CCN(CC(=O)*)CCN(CC(=O)O)CC1; βAla = NCCC(=O)O

compound | reading_unit | tissue uptake at 2 h
CC[C@H](C)[C@H](NC(=O)[C@H](Cc1ccc(O)cc1)NC(=O)[C@@H](NC(=O)[C@H](CCCNC(=N)N)NC(=O)[C@H](CC(=O)O)NC(=O)CCNC(=O)[C@H](CCCCN)NC(=O)CN1CCN(CC(=O)O)CCN(CC(=O)O)CCN(CC(=O)O)CC1)C(C)C)C(=O)N[C@@H](Cc1c[nH]cn1)C(=O)N1CCC[C@H]1C(=O)N[C@@H](Cc1ccccc1)C(=O)N[C@@H](Cc1c[nH]c2ccccc12)C(=O)N[C@@H](CCCCN)C(=O)N[C@@H](Cc1ccc(O)cc1)C(N)=O [^68Ga-DOTA-AngII peptide, metal not drawn] ({DOTA}-K[βAla]DRVYIHPFWKY-NH2) | %ID/g | 0.6

Origin of the recorded values: paper PMC10675340
